Cited source for all entries: paper PMC9246766

biological target: OCT3 (Homo sapiens); assay: IC50 determination against OCT3-mediated ASP+ uptake in HEK-293 cells overexpressing OCT3; type: cell-based
pIC50: −log10 of the molar value.
Respond with YES for pIC50 values of 5 and above, NO for values below.

Past entries and their recorded results:
> print(dat)
                                   compound  label
1  O=c1n(CCCN2CCN(c3cccc(Cl)c3)CC2)nc2ccccn12    YES
2  C=C[C@H]1C[N@@]2CC[C@H]1C[C@H]2[C@H](O)c1ccnc2ccc(OC)cc12    YES
3  N=C(N)NC(=O)c1nc(Cl)c(N)nc1N [amiloride]     NO
4  CC(=O)N1CCN(c2ccc(OCC3COC(Cn4ccnc4)(c4ccc(Cl)cc4Cl)O3)cc2)CC1 (stereo not drawn)    YES
5                N=C(N)N/N=C/c1c(Cl)cccc1Cl    YES

## Input Item `COc1ccc(Cc2nccc3cc(OC)c(OC)cc23)cc1OC` with pIC50 of 5 or above?
## Output YES

## Input Is pIC50 for COc1cc2nc(N3CCN(C(=O)C4COc5ccccc5O4)CC3)nc(N)c2cc1OC (stereo not drawn) at or above 5?
## Output YES

###

Target: OCT3 (Homo sapiens)
Sequence (O75751 1-556): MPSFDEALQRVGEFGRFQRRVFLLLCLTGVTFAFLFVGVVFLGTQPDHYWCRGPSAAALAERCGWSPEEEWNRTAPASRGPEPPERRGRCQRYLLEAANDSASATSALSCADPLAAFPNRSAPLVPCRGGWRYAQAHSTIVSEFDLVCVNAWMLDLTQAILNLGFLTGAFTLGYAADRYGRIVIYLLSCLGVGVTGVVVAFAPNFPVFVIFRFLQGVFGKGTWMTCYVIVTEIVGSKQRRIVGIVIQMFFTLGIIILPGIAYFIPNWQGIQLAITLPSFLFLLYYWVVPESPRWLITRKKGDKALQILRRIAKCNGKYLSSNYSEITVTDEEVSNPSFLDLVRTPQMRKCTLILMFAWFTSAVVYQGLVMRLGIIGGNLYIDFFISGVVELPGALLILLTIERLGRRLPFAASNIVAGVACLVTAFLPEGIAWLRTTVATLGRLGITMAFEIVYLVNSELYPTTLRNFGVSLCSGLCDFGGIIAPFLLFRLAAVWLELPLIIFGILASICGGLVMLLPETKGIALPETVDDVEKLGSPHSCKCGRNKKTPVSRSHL
Experiment: High throughput screen: inhibition of OCT3-mediated ASP+ uptake in HEK-293 cells stably expressing OCT3
Assay type: cell-based
Conditions: HEK293
Provide the reported inhibition at 20 µM of each item.
Numbers only, in %.

> print(dat)
                                   compound    reported.endpoint  readout.value
1  C[C@]12C=CC(=O)C=C1CC[C@@H]1[C@@H]2[C@@H](O)C[C@@]2(C)[C@H]1CC[C@]2(O)C(=O)CO  inhibition at 20 µM           67.5
2  C[C@@H](O)[C@H]1C(=O)N2C(C(=O)O)=C(S[C@@H]3CN[C@H](C(=O)N(C)C)C3)[C@H](C)[C@H]12  inhibition at 20 µM             65
3  CC1(C)S[C@@H]2[C@H](NC(=O)[C@H](NC(=O)N3CCNC3=O)c3ccccc3)C(=O)N2[C@H]1C(=O)O  inhibition at 20 µM           66.9
4  C=C[C@H]1C[N@@]2CC[C@H]1C[C@H]2[C@H](O)c1ccnc2ccc(OC)cc12  inhibition at 20 µM           90.6
5  Cc1c(OCC(F)(F)F)ccnc1C[S+]([O-])c1nc2ccccc2[nH]1 (stereo not shown)  inhibition at 20 µM           87.2
6  COCCCOc1ccnc(C[S+]([O-])c2nc3ccccc3[nH]2)c1C (stereo not shown)  inhibition at 20 µM           87.3

Now let's try a different one.
Field inhibition at 20 µM (entry CCC1=C(C)CN(C(=O)NCCc2ccc(S(=O)(=O)NC(=O)N[C@H]3CC[C@H](C)CC3)cc2)C1=O [glimepiride] ) reads 87.7
